Assay: Cy5 fluorescence interference with SSB-bound oligo, artefact control for HCV NS3 helicase inhibitor project, biochemical, NIH Clinical Collection, E. coli SSB (AID 743268)
measured.parameter: fluorescence ratio
Write the value as a bare number.

Any idea what its fluorescence ratio is? The compound is CCCCC(=O)N(Cc1ccc(-c2ccccc2-c2nn[nH]n2)cc1)[C@H](C(=O)O)C(C)C
1.07

* * *

Catalogue of period change values
Assay: circadian clock period modulators, cell-based, LOPAC library, luminescence reporter (AID 2774);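 also: values are relative to mean of DMSO wells on each plate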
Conditions: circadian reporter cells, at 7 µM, actives lie on both sides
Calls of active or inactive are those of the source. The rule behind the calls is not given here.

Bench note: what period change did O=C(O)C1=CCNCC1 show?
0.375 h (inactive)

Follow-up item: O=C(O)/C=C/c1ccc(O)c(O)c1
0.055 h (inactive)

Record: COc1cc(Cc2cnc(N)nc2N)cc(OC)c1OC
0.055 h (inactive)

Param item: Cc1cc(C)c(/C=C2\C(=O)Nc3ccccc32)[nH]1
0.375 h (inactive)

Cool, now Cn1ccc2cc3c(cc21)CCN3C(=O)Nc1cccnc1
0.355 h (inactive)

Try the molecule Oc1ccc(O)cc1
-0.06 h (inactive)

Then C[N+](C)(C)CCCCCCCCCC[N+](C)(C)C ?
0.03 h (inactive)

Now try O=c1[nH]c2ccccc2n1CCCN1CCN(C(c2ccccc2)c2ccccc2)CC1 .
0.15 h (inactive)

* * *

Experiment: LFS_MB_1R medulloblastoma cell growth inhibition, synergistic combos for chromothripsis tumors, cisplatin or BGB combos (AID 1671452);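 also: cells exposed for 96 hours before readout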
Details: LFS_MB_1R medulloblastoma cells, measured here: combination with cisplatin, at 0.5 µM, stronger effect = higher value
measured.parameter: inhibition (%)
Give the number; % is assumed, so skip it.

compound: O=C(CCCCCCC(=O)Nc1ccccc1)NO
measured.parameter: inhibition
val: 21.7

compound: CNC1CCCN(c2c(F)cc3c(=O)c(C(=O)O)cn(C4CC4)c3c2OC)C1 (stereo not drawn)
measured.parameter: inhibition
val: -60.6

compound: CCOC(=O)Nc1ccc(NCc2ccc(F)cc2)nc1N
measured.parameter: inhibition
val: -23.8

compound: Nc1ncn([C@H]2C[C@H](O)[C@@H](CO)O2)c(=O)n1
measured.parameter: inhibition
val: -1.56

Reported inhibition for Nc1ccc2cc3ccc(N)cc3nc2c1 : what is it?
-45.7

Consider next the compound O=c1c(O)c(-c2ccc(O)c(O)c2)oc2cc(O)ccc12 in the same way.
-18.5

Would you kindly repeat that for CN(N=O)C(=O)NC1C(O)OC(CO)C(O)C1O (stereo not drawn) ?
-24.7

Entry O=c1[nH]c(=O)n([C@H]2C[C@H](O)[C@@H](CO)O2)cc1C(F)(F)F please
-37.1

* * *

Test: ICB984 medulloblastoma cell growth inhibition, synergistic combos for chromothripsis tumors, cisplatin or BGB combos (AID 1671451);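 also: cells exposed for 96 hours before readout; 0% = vehicle DMSO and 100% = killing by high DMSO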
Settings: ICB984 medulloblastoma cells, drug combinations, cisplatin combo, at 0.05 µM, stronger effect = higher value
Kindly return met if reported inhibition is no lower than -20%; return not met if it is lower.

molecule: O=c1[nH]c(=O)n([C@H]2C[C@H](O)[C@@H](CO)O2)cc1C(F)(F)F
label.class: not met

Can CCn1nc(C(=O)O)c(=O)c2cc3c(cc21)OCO3 be said to have inhibition at or above -20%?
met

Try this molecule too: N=C(N=C(N)N)N1CCOCC1
met

Also need Nc1ncn([C@H]2C[C@H](O)[C@@H](CO)O2)c(=O)n1 , thanks.
not met

Next up: COc1c2ccoc2cc2oc(=O)ccc12
not met

Query O=c1cc[nH]c(=O)[nH]1 next
not met

And what about the molecule O=c1c(O)c(-c2ccc(O)c(O)c2)oc2cc(O)ccc12 ?
met

Thanks! And O=C(CCCCCCC(=O)Nc1ccccc1)NO ?
met

# iterate: CN1CCN(c2c(F)cc3c(=O)c(C(=O)O)cn4c3c2OCN4C)CC1
met

* * *

Assay: modifiers of HSF1 nuclear foci, imaging, Selleck Cancer Library (AID 1347162)
Details: human cells, at 10 µM; measured here: HSF1 foci SSMD mean
Label 1 when SSMD is at or above 2; anything below gets 0.

molecule: CCc1ccc(CCOc2ccc(CC3SC(=O)NC3=O)cc2)nc1 (stereo not given)
label.class: 0

molecule: Nc1nc(Cl)nc2c1ncn2[C@@H]1O[C@H](CO)[C@@H](O)[C@@H]1F
label.class: 0

molecule: CCN[C@H]1C[C@H](C)S(=O)(=O)c2sc(S(N)(=O)=O)cc21
label.class: 1

molecule: C[C@]12CC[C@@H]3c4ccc(O)cc4C[C@@H](CCCCCCCCCS(=O)CCCC(F)(F)C(F)(F)F)[C@H]3[C@@H]1CC[C@@H]2O (stereo not given in full)
label.class: 1

Hello, I need to know if C[C@]12CC[C@@H]3c4ccc(O)cc4CC[C@H]3[C@@H]1CC[C@@H]2O has measured SSMD not below 2. Thanks!
1

* * *

Tested on: R275C/beta2Delta
Test: modulators of BK channel variants, profiling panel, selectivity assay, cell-based, U2OS BacMam, thallium flux, beta subunits (AID 1259406);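 also: initial slope of Thallos dye fluorescence rise after thallium is added; log ratio against the mean of 0.3% DMSO vehicle wells on the same plate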
Conditions: at 30 µM
Active and inactive are the calls of the source.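 Rule for the calls: active = thallium flux through the channel raised or lowered by more than 3 SD from vehicle-only wells, actives on both sides; inactive = the rest.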
Please state which outcome applies, choosing from true (1) (active), false (0) (inactive)

Tell me the recorded outcome of this test for N=c1nc(N2CCCCC2)cc(N)n1O .
false (0)

Do the same for CNCCC=C1c2ccccc2CCc2ccccc21 please
true (1)

Cool, now CC(=O)OCC(=O)[C@@]1(O)CC[C@H]2[C@@H]3C[C@H](C)C4=CC(=O)C=C[C@]4(C)[C@H]3[C@@H](O)C[C@@]21C
false (0)

Please answer likewise for CN/C(=C\[N+](=O)[O-])NCCSCc1ccc(CN(C)C)o1
false (0)

Moving on to the next compound: CCCC1O[C@@H]2C[C@H]3[C@@H]4CCC5=CC(=O)C=C[C@]5(C)[C@H]4[C@@H](O)C[C@]3(C)[C@]2(C(=O)CO)O1 (some centres not stated)
true (1)

Item: Cc1cc(NS(=O)(=O)c2ccc(N)cc2)no1
false (0)

Record: CCN1CCN(C(=O)N[C@@H](C(=O)N[C@@H]2C(=O)N3[C@@H]2SC(C)(C)[C@@H]3C(=O)O)c2ccccc2)C(=O)C1=O
false (0)

Note, next up: Nc1ccn([C@@H]2O[C@H](CO)[C@@H](O)C2O)c(=O)n1 (some centres not stated)
false (0)

Can you handle C[C@H](CCC(=O)O)[C@H]1CC[C@H]2[C@@H]3[C@@H](O)C[C@@H]4C[C@H](O)CC[C@]4(C)[C@H]3CC[C@]12C next?
true (1)

Queued: CCC(=O)OCC(=O)[C@@]1(OC(=O)CC)[C@@H](C)C[C@H]2[C@@H]3CCC4=CC(=O)C=C[C@]4(C)[C@@]3(Cl)[C@@H](O)C[C@@]21C
false (0)

* * *

inhibition values, listed per item
Experiment: HDN33 neuroblastoma growth inhibition, cell-based, chromothripsis tumors, cisplatin or BGB combos (AID 1671450);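 also: cells exposed to compound for four days; 0% = vehicle DMSO and 100% = cell killing by high DMSO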
Conditions: HDN33 neuroblastoma cells, measured here: with BGB IC20 combination, at 0.5 µM, stronger effect = higher value
Please respond with the number in % and leave the unit unwritten.

// worked examples, inhibition included
compound: CN(N=O)C(=O)NC1C(O)OC(CO)C(O)C1O (centres undefined)
unit.descriptor: %
inhibition: -17.4

compound: CN1C[C@@H]2C[C@H]1CN2c1cc2c(cc1F)c(=O)c(C(=O)O)cn2C1CC1
unit.descriptor: %
inhibition: -23.1

compound: CN1CCN(c2c(F)cc3c(=O)c(C(=O)O)cn(CCF)c3c2F)CC1
unit.descriptor: %
inhibition: 12.4

compound: O=c1cc[nH]c(=O)[nH]1
unit.descriptor: %
inhibition: -36.5

compound: Nc1ccc2cc3ccc(N)cc3nc2c1
unit.descriptor: %
inhibition: 5.24

State the recorded inhibition for this entry: C[C@@H](CN1CC(=O)NC(=O)C1)N1CC(=O)NC(=O)C1
-11.3

Queued: CNC1CCCN(c2c(F)cc3c(=O)c(C(=O)O)cn(C4CC4)c3c2OC)C1 (centres undefined)
-39.7

* * *

# fold fluorescence values compiled below
Assay: inhibitors of Cryptococcus chitosan production, flow cytometry, Cibacron Brilliant Red staining (AID 1347148);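 also: compound exposure lasted three days at 37 degrees C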
Details: Cryptococcus neoformans chitosan, stronger effect = lower value; at 10 µM unless noted
The source made the active and inactive calls. No rule for the calls is given here.

compound.smiles: CC1=C(/C=C/C(C)=C/C=C/C(C)=C/C(=O)Nc2ccc(O)cc2)C(C)(C)CCC1
val: 6.05 (inactive)

Which fold fluorescence reading was recorded for the molecule COc1cc(CNC(=O)CCCC/C=C/C(C)C)ccc1O ?
7.26 [at 163.7 µM] (inactive)

Also CCCCC/C=C\C/C=C\C/C=C\C/C=C\CCCC(=O)O , if possible.
5.45 (inactive)

Next record, please: CC/C(=C(\c1ccccc1)c1ccc(OCCN(C)C)cc1)c1ccccc1
8.26 [at 134.6 µM] (inactive)

Now consider CC(C)Cn1c(=O)n(C)c(=O)c2[nH]cnc21 .
4.08 [at 225 µM] (inactive)

Note, next up: FC(F)(F)c1ccccc1-n1ccnc1
8.97 [at 235.7 µM] (inactive)

What about NCCc1cnc[nH]1 ?
5.22 [at 449.9 µM] (inactive)

Same again, this time with CCOc1ccc(-c2nc3ccc(-c4nc5ccc(N6CCN(C)CC6)cc5[nH]4)cc3[nH]2)cc1
1.62 [at 110.5 µM] (inactive)

Could you do the same for Cc1cccc(Nc2cc(Cl)nc(SCC(=O)O)n2)c1C , please?
4.05 (inactive)

Entry to check: O=C(/C=C/c1ccc(O)c(O)c1)OCCc1ccccc1
6.87 [at 175.9 µM] (inactive)

And what about the molecule CN(C)C(=O)C(CCN1CCC(O)(c2ccc(Cl)cc2)CC1)(c1ccccc1)c1ccccc1 ?
10.1 [at 104.8 µM] (inactive)

All values here come from PubChem BioAssay.
